# TEST PROTOCOL: Solubility of compound 1 in solvent (100 mg blended with 10 ml solvent, supernatant measured by HPLC)
# Format: physicochemical
# CONDITION LABEL: simulated gastric fluid, thermodynamic from solid; solvent: 0.05 N hydrochloric acid solution; room temperature; read-out: Compound 1 concentration
ATTRIBUTE MEASURED: solubility thermodynamic (mg/mL)
One number for each entry, in mg/mL.

Any idea what solubility thermodynamic was measured for Nc1ccccc1NC(=O)c1ccc(CNC(=O)OCc2cccnc2)cc1 ? 14

---

# TEST PROTOCOL: Solubility of compound 1 in solvent (100 mg blended with 10 ml solvent, supernatant measured by HPLC)
# Type: physicochemical
# CONDITION LABEL: sodium phosphate buffer solution, aqueous buffer, thermodynamic from solid; solvent: phosphate buffer, pH 6.8; room temperature; comparative control sample; read-out: Compound 1 concentration
ATTRIBUTE MEASURED: solubility thermodynamic (µg/mL)
One number for each entry, in µg/mL.

Any idea what solubility thermodynamic was measured for Nc1ccccc1NC(=O)c1ccc(CNC(=O)OCc2cccnc2)cc1 ? 40
